# procedure_summary: Biodistribution of 99mTc(N)(X)(DTC)+ heterocomplexes in rats
# Assay type: in vivo, male Spraque-Dawley rats (SD rats)
# test_parameters: 2 min after injection
property_measured: Brain % dose/g (% dose/g)

INSERT INTO measurements (compound, unit_annotation, reported) VALUES
  ('COCCC[P]1(CCCOC)CCN(CCOC)CC[P](CCCOC)(CCCOC)[99Tc+]12(#[N])[NH]N(C)C(SC)=[S]2 [^99mTc(N)(PNP3)(DTC)^+]', '% dose/g', 0.035),
  ('CCCN1CC[P+](c2ccccc2)(c2ccccc2)[99Tc-2]2(#[N])([NH]N(C)C(SC)=[S+]2)[P+](c2ccccc2)(c2ccccc2)CC1 [^99mTc(N)(PNP1)(DTC)^+]', '% dose/g', 0.086),
  ('COCCN1CC[P+](c2ccccc2)(c2ccccc2)[99Tc-2]2(#[N])([NH]N(C)C(SC)=[S+]2)[P+](c2ccccc2)(c2ccccc2)CC1 [^99mTc(N)(PNP2)(DTC)^+]', '% dose/g', 0.065),
  ('CSC1=[S+][99Tc-2]2(#[N])([NH]N1C)[P+](c1ccccc1)(c1ccccc1)CCOCC[P+]2(c1ccccc1)c1ccccc1 [^99mTc(N)(POP)(DTC)^+]', '% dose/g', 0.073);

###

In this section, each of the compounds is paired with its reported Stomach % dose/g.
# procedure_summary: Biodistribution of 99mTc(N)(X)(DTC)+ heterocomplexes in rats
# Format: in vivo, male Spraque-Dawley rats (SD rats)
# test_parameters: 1 hr after injection
property_measured: Stomach % dose/g (% dose/g)

INSERT INTO results (compound, reported) VALUES
  ('COCCN1CC[P+](c2ccccc2)(c2ccccc2)[99Tc-2]2(#[N])([NH]N(C)C(SC)=[S+]2)[P+](c2ccccc2)(c2ccccc2)CC1 [^99mTc(N)(PNP2)(DTC)^+]', 0.932),
  ('CSC1=[S+][99Tc-2]2(#[N])([NH]N1C)[P+](c1ccccc1)(c1ccccc1)CCOCC[P+]2(c1ccccc1)c1ccccc1 [^99mTc(N)(POP)(DTC)^+]', 0.944),
  ('CCCN1CC[P+](c2ccccc2)(c2ccccc2)[99Tc-2]2(#[N])([NH]N(C)C(SC)=[S+]2)[P+](c2ccccc2)(c2ccccc2)CC1 [^99mTc(N)(PNP1)(DTC)^+]', 0.625),
  ('COCCC[P]1(CCCOC)CCN(CCOC)CC[P](CCCOC)(CCCOC)[99Tc+]12(#[N])[NH]N(C)C(SC)=[S]2 [^99mTc(N)(PNP3)(DTC)^+]', 0.892);

###

In this section, each of the molecules is paired with its reported Heart % dose/g.
# procedure_summary: Biodistribution of 99mTc(N)(X)(DTC)+ heterocomplexes in rats
# Assay type: in vivo, male Spraque-Dawley rats (SD rats)
# test_parameters: 30 min after injection
property_measured: Heart % dose/g (% dose/g)

INSERT INTO assay_data (molecule, unit_annotation, reported) VALUES
  ('CCCN1CC[P+](c2ccccc2)(c2ccccc2)[99Tc-2]2(#[N])([NH]N(C)C(SC)=[S+]2)[P+](c2ccccc2)(c2ccccc2)CC1 [^99mTc(N)(PNP1)(DTC)^+]', '% dose/g', 0.513),
  ('COCCN1CC[P+](c2ccccc2)(c2ccccc2)[99Tc-2]2(#[N])([NH]N(C)C(SC)=[S+]2)[P+](c2ccccc2)(c2ccccc2)CC1 [^99mTc(N)(PNP2)(DTC)^+]', '% dose/g', 0.652),
  ('COCCC[P]1(CCCOC)CCN(CCOC)CC[P](CCCOC)(CCCOC)[99Tc+]12(#[N])[NH]N(C)C(SC)=[S]2 [^99mTc(N)(PNP3)(DTC)^+]', '% dose/g', 2.551),
  ('CSC1=[S+][99Tc-2]2(#[N])([NH]N1C)[P+](c1ccccc1)(c1ccccc1)CCOCC[P+]2(c1ccccc1)c1ccccc1 [^99mTc(N)(POP)(DTC)^+]', '% dose/g', 0.428);
